# Test system: Danio rerio larvae (5 dpf)
# assay-text: combined optomotor response (time in upper well half, down vs up moving lines, periods 7-14) minus DMSO control (percentage points); higher = stronger optomotor response than DMSO larvae
# assay-conditions: 10 µM; exposure time: 3 h pre-incubation + 3 h imaging
Where a name gives a salt, the structure may show the parent alone.
Param threshold (1) applies to combined optomotor response; output condition met when value >= threshold, condition not met when value < threshold.

Answered examples (7):
O=C(O)C[C@H](O)C[C@H](O)/C=C/c1c(C2CC2)nc2ccccc2c1-c1ccc(F)cc1 [Pitavastatin calcium]; condition met
O=C1CCc2ccc(OCCCCN3CCN(c4cccc(Cl)c4Cl)CC3)cc2N1 [Aripiprazole]; condition met
COc1cc2nccc(Oc3ccc(NC(=O)C4(C(=O)Nc5ccc(F)cc5)CC4)cc3)c2cc1OC; condition not met
C#CCN[C@@H]1CCc2ccccc21 [Rasagiline mesylate]; condition met
COc1ccccc1Oc1c(NS(=O)(=O)c2ccc(C(C)(C)C)cc2)nc(-c2ncccn2)nc1OCCO [Bosentan]; condition met
CC(C)OC(=O)C(C)(C)Oc1ccc(C(=O)c2ccc(Cl)cc2)cc1 [Fenofibrate]; condition met
O=c1n(CCCN2CCN(c3cccc(Cl)c3)CC2)nc2ccccn12 [Trazodone hydrochloride]; condition met

Now consider the entry below.
In plain terms: is recorded combined optomotor response at least 1 for OCc1cc(C(O)CNCCCCCCOCCCCc2ccccc2)ccc1O (stereo not drawn) [Salmeterol xinafoate] ?
condition not met

These data points were gathered from the supplement of paper PMC9950053.
